# credit: the supplement of paper PMC4466140

target: CaSho1; assay: SPOT peptide array binding signal intensity (averaged, normalized) (arbitrary units (background-subtracted, floor 0; scale differs between SH3 domains)); higher = stronger binding of the SH3 domain to the peptide
A collection of binders and their measured SPOT peptide array binding signal intensity
parameter: SPOT peptide array binding signal intensity

{"columns": ["binder", "result"],
 "data": [
  ["GDHPKGPPPPPPPPD", "≤ 0"],
  ["ATNVPVAPPPPPASL", "≤ 0"],
  ["AAAPKHAPPPVPNET", "≤ 0"],
  ["QDKEGIPPDQQRLIF", "≤ 0"]
]}
